tested on: HCT-116; test: Cytotoxicity against human HCT116 cells after 72 hrs by MTT assay; format: functional, cell-based; conditions: HCT-116, 72 h
pIC50: −log10 of the molar value.
So basically, the class depends on measured pIC50, and the ranges are group 1 (below 5), group 2 (5 to below 6), group 3 (6 or more)

Query: Determine which band this molecule sits in: `CC[C@]1(O)c2cc3n(c(=O)c2CO[C@H]1F)Cc1c-3nc2ccccc2c1C1CCCC1`
Result: group 1

Query: Determine which band this molecule sits in: `CC[C@]1(O)c2cc3n(c(=O)c2CO[C@H]1F)Cc1c-3nc2ccccc2c1C1CCC1`
Result: group 1

Query: Determine which band this molecule sits in: `CC[C@]1(O)c2cc3n(c(=O)c2CO[C@H]1F)Cc1c-3nc2ccccc2c1C(C)C`
Result: group 1

Query: Determine which band this molecule sits in: `CC[C@@]1(O)C(=O)OCc2c1cc1n(c2=O)Cc2cc3ccccc3nc2-1`
Result: group 3

Query: Determine which band this molecule sits in: `CC[C@]1(O)c2cc3n(c(=O)c2CO[C@H]1F)Cc1cc2cc(OC)ccc2nc1-3`
Result: group 2

Query: Determine which band this molecule sits in: CC[C@]1(O)c2cc3n(c(=O)c2CO[C@@H]1F)Cc1cc2ccccc2nc1-3 [(20S,21R)-FLUOROCAMPTOTHECIN]
Result: group 1

Query: Determine which band this molecule sits in: `CCCCc1c2c(nc3ccccc13)-c1cc3c(c(=O)n1C2)CO[C@@H](F)[C@]3(O)CC`
Result: group 3

Query: Determine which band this molecule sits in: `CC[C@]1(O)c2cc3n(c(=O)c2CO[C@H]1F)Cc1c-3nc2ccccc2c1C1CC1`
Result: group 2

Query: Determine which band this molecule sits in: CC[C@]1(O)c2cc3n(c(=O)c2CO[C@H]1F)Cc1cc2ccccc2nc1-3 [(20S,21S)-FLUOROCAMPTOTHECIN]
Result: group 2

Query: Determine which band this molecule sits in: CC[C@]1(O)c2cc3n(c(=O)c2CO[C@H]1F)Cc1c-3nc2ccccc2c1C1CCCCC1 [(20S,21S)-7-CYCLOHEXYLFLUOROCAMPTOTHECIN]
Result: group 3

----------
system: HCT-116; assay: Cytotoxicity against human HCT116 cells after 72 hrs by MTT assay; format: functional, cell-based; conditions: HCT-116, 72 h
Criterion: IC50 strictly less than 1000 nM. Met: True. Not met: False.

Query: Strictly below 1000 nM in IC50? `CCc1c2c(nc3ccc(OC)cc13)-c1cc3c(c(=O)n1C2)CO[C@@H](F)[C@]3(O)CC`
Result: False

Query: Strictly below 1000 nM in IC50? `CCc1c2c(nc3ccccc13)-c1cc3c(c(=O)n1C2)CO[C@@H](F)[C@]3(O)CC`
Result: False

Query: Strictly below 1000 nM in IC50? `CCCc1c2c(nc3ccccc13)-c1cc3c(c(=O)n1C2)CO[C@@H](F)[C@]3(O)CC`
Result: True

Query: Strictly below 1000 nM in IC50? `CC[C@]1(O)c2cc3n(c(=O)c2CO[C@H]1F)Cc1c-3nc2ccccc2c1C`
Result: False
